Tested on: GRK3
Construct: gene ADRBK2
Conditions: Compound Concentration (nM):1000;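 further: KINOMEscan scanMAX binding as percent activity remaining versus control; lower means stronger binding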
Catalogue of molecules with associated Percent Control
Only the number, expressed in %, is required.

Cl.O=S1CCN(Cc2ccc(-c3ccc4ncnc(Nc5ccc(OCc6ccccc6)c(F)c5)c4c3)o2)CC1 [GW576924A]    100
CC1=C(C(=O)Nc2ccc3[nH]ncc3c2)C(c2ccc(Cl)c(Cl)c2)CC(=O)N1 (centres unmarked) [GSK299115A]    20
COc1cc(C)c(N(C)C(=O)CN(C)C)cc1Nc1nc(Nc2cccc(F)c2C(N)=O)c2cc[nH]c2n1    80
C[C@@H](Oc1cc(-n2cnc3ccc(OC4CCN(C)CC4)cc32)sc1C(N)=O)c1ccccc1Cl [GSK579289A]    78

Next item in the queue.
Asked: Can you share its Percent Control? I mean this molecule: COc1ccc2c(-c3ccnc(Nc4cccc(OC(F)(F)F)c4)n3)cnn2n1 [GW810372X]
Given back: 98

====

Tested on: TYK2(JH1domain-catalytic)
Details: Compound Concentration (nM):1000
measure.name: Percent Control (%)
Response body: numeric value in %, unit text excluded.

NS(=O)(=O)c1ccc(N/N=C2\C(=O)Nc3ccc(C(=O)NCc4ccncc4)cc32)cc1 [GW300657X]    70
COc1cc2ncn(-c3cc(O[C@H](C)c4ccccc4Cl)c(C(N)=O)s3)c2cc1OC [GSK237701A]    45
CN(C)c1cc2c(Nc3ccc4c(cnn4Cc4ccccc4)c3)ncnc2cn1 [GW282974X]    100
COc1cccc(-c2c[nH]c3c(N/N=C/c4ccncc4)ncnc23)c1 [GW814408X]    19
NS(=O)(=O)c1ccc(N/N=C2\C(=O)Nc3ccc(-c4cnco4)cc32)cc1    24

Asked: I'd like to know its Percent Control. The compound in question is Cc1cc(O)cc(C)c1/C=C/c1cncc(C(N)=O)c1 [GW435821X]
Given back: 100

Asked: Record request: Percent Control value, item COc1ccc2cc(-c3c(-c4ccncc4)nc(-c4ccc(S(C)(=O)=O)cc4C)n3C)ccc2c1
Given back: 73

Asked: Which value of Percent Control has been reported for Cl.c1ccc(Cc2nc3ccc(Nc4ncnc5ccccc45)cc3[nH]2)cc1 [GR269666A] in the records?
Given back: 100

====

Reported Percent Control by item:
Test system: ABL1-phosphorylated
Conditions: Compound Concentration (nM):1000
All answers are understood in %, so give the number only.

Solved entries:
COc1ccc2[nH]c3c4[nH]c5ccc(OC)cc5c4c4c(c3c2c1)C(=O)NC4=O [GW296115X]    57
Nc1ncnc2occ(-c3ccc(NC(=O)Nc4cc(C(F)(F)F)ccc4F)cc3)c12 [GW770249X]    56
CN1CCN(C(=O)c2ccc(NC(=O)Nc3ccc(N(C)c4ccnc(Nc5ccc(CS(C)(=O)=O)cc5)n4)cc3)cc2)CC1.Cl [GW830263A]    30

Next, consider the following compound.
Asked: // query Percent Control value for entry CN(C)CCNC(=O)Nc1ccc(N(C)c2ccnc(Nc3ccc(CS(C)(=O)=O)cc3)n2)cc1.Cl [GW830900A]
Given back: 71

====

Tested on: PRKCI
Conditions: Compound Concentration (nM):1000
measure.name: Percent Control (%)
Quick reminder: number only, in %, skip the unit.

Sample answers from the record:
NS(=O)(=O)c1ccc(N/N=C2\C(=O)Nc3ccc(C(=O)NCCc4c[nH]cn4)cc32)cc1 [GW300660X]    90
CN(C)c1cc2c(Nc3ccc4c(cnn4Cc4ccccc4)c3)ncnc2cn1 [GW282974X]    88
COC(=O)Nc1nc2ccc(Oc3ccc(NC(=O)Nc4cc(C(F)(F)F)ccc4F)cc3)cc2s1.Cl [GW693917A]    91
COc1ccc(COc2ccc(Cc3cnc(N)nc3N)cc2OC)cc1 [GW632580X]    88

Below: the item to evaluate.
Asked: # lookup: Percent Control of CC1=C(C(=O)Nc2ccc3[nH]ncc3c2)C(c2ccc(Cl)c(Cl)c2)CC(=O)N1 (centres unmarked) [GSK299115A]
Given back: 91

====

Test system: OSR1
Construct: gene OXSR1
Conditions: Compound Concentration (nM):1000
Percent Control: recorded values

Take a look at these entries with their results.
CCc1ccc(Oc2nccc(-c3c(-c4ccc(F)cc4)ncn3C3CCNCC3)n2)cc1    100%
CCn1c(-c2nonc2N)nc2c(C#CC(C)(C)O)nc(OCCNC)cc21.Cl    100%
COc1cccc(-n2ncc3c(N/N=C/c4ccncc4)ncnc32)c1 [GW784752X]    99%

Asked: Reported Percent Control, molecule CCS(=O)(=O)c1ccc(OC)c(Nc2ncc(-c3cccc(OC)c3)o2)c1 [GW580509X] : ____
Given back: 100%

====

System: MEK6
Construct: gene MAP2K6
Settings: Compound Concentration (nM):1000
Percent Control overview
Write the number in % without appending the unit.

CCc1ccc(Oc2nccc(-c3c(-c4ccc(F)cc4)ncn3C3CCNCC3)n2)cc1    100
Cl.O=C(Nc1ccc(Oc2ccc3[nH]c(NC(=O)c4ccco4)nc3c2)cc1)Nc1cc(C(F)(F)F)ccc1F [GW683134A]    73
COc1cc2ncnc(Nc3ccc4c(cnn4Cc4ccccc4)c3)c2cc1OC.Cl [GW282449A]    97

Note: attention shifts to another entry.
Asked: Any idea what Percent Control was measured for COc1cc(N2CCN(C(C)C)CC2)ccc1Nc1nc(Nc2ccc(F)cc2C(=O)NC[C@@H](O)CO)c2cc[nH]c2n1 [GSK1392956A] ?
Given back: 67

====

Test system: TNK1
Details: Compound Concentration (nM):1000
The class of a record is decided solely by its measured Percent Control; consult low range (below 70%), mid range (70% to below 90%), high range (90% or more)

The examples below pair each entry with its known result.
COc1cc(C)c(N(C)C(=O)CN(C)C)cc1Nc1nc(Nc2cccc(F)c2C(N)=O)c2cc[nH]c2n1    mid range
COc1ccccc1-c1cc(/C=C2\C(=O)Nc3ncc(Br)cc32)cc(Br)c1O [GW442130X]    high range
Cl.O=C(Nc1ccc(Oc2ccc3[nH]c(NC(=O)c4ccccc4)nc3c2)cc1)Nc1cc(C(F)(F)F)ccc1F [GW709042A]    low range
COc1cc(N2CCN(C(C)C)CC2)ccc1Nc1nc(Nc2ccc(F)cc2C(=O)NC[C@@H](O)CO)c2cc[nH]c2n1 [GSK1392956A]    low range
CCS(=O)(=O)c1ccc(OC)c(Nc2ncc(-c3cccc(OC)c3)o2)c1 [GW580509X]    low range

Asked: Assign a bin to Nc1ncnc2occ(-c3ccc(NC(=O)Nc4cc(C(F)(F)F)ccc4F)cc3)c12 [GW770249X]
Given back: mid range

Asked: Which category does the recorded Percent Control put Cl.O=S1CCN(Cc2ccc(-c3ccc4ncnc(Nc5ccc(OCc6ccccc6)c(F)c5)c4c3)o2)CC1 [GW576924A] in?
Given back: high range

Asked: Bin this entry: CN(C)c1cc2c(Nc3ccc4c(cnn4Cc4ccccc4)c3)ncnc2cn1 [GW282974X]
Given back: high range

Asked: Sort COc1ccc2[nH]c3c4[nH]c5ccc(OC)cc5c4c4c(c3c2c1)C(=O)NC4=O [GW296115X] into one of the categories.
Given back: low range

Asked: In plain terms, what class is NS(=O)(=O)c1ccc(N/N=C2\C(=O)Nc3ccc(C(=O)NCc4ccncc4)cc32)cc1 [GW300657X] ?
Given back: high range

====

Test system: MKNK2
Conditions: Compound Concentration (nM):1000
The molecules listed here are annotated with their Percent Control.
The reply must contain the numeric value and, after it, the unit.

// known answers, use as guide
CC1=C(C(=O)Nc2ccc3[nH]ncc3c2)C(c2ccc3ccccc3c2)CC(=O)N1 (stereo not drawn) [GSK270822A]    73%
CCS(=O)(=O)c1ccc(OC)c(Nc2ncc(-c3cccc(F)c3)o2)c1 [GW621970X]    100%
CC1=C(C(=O)Nc2ccc3[nH]ncc3c2)C(c2ccc(Cl)c(Cl)c2)CC(=O)N1 (stereo not drawn) [GSK299115A]    66%
CCc1ccc(Oc2nccc(-c3c(-c4ccc(F)cc4)ncn3C3CCNCC3)n2)cc1    100%
Cl.O=C(Nc1ccc(Oc2ccc3[nH]c(NC(=O)c4ccccc4)nc3c2)cc1)Nc1cc(C(F)(F)F)ccc1F [GW709042A]    26%

Asked: Percent Control for COc1cc(N2CCN(C(C)C)CC2)ccc1Nc1nc(Nc2ccc(F)cc2C(=O)NC[C@@H](O)CO)c2cc[nH]c2n1 [GSK1392956A] ?
Given back: 97%

Asked: Report Percent Control for COc1ccc(COc2ccc(Cc3cnc(N)nc3N)cc2OC)cc1 [GW632580X] please.
Given back: 100%

Asked: I would be grateful if you could share the reported Percent Control for COc1cccc(-n2ncc3c(N/N=C/c4ccncc4)ncnc32)c1 [GW784752X] .
Given back: 59%

Asked: Consider the molecule shown here: NS(=O)(=O)c1ccc(N/N=C2\C(=O)Nc3ccc(-c4cnco4)cc32)cc1 What is its recorded Percent Control?
Given back: 71%

Reference source: paper PMC7826789
